Assay: Solubility of the compound in 0.1 % DMSO/PBS solution assessed as radius of the aggregate particle at 4 uM measured over 10 mins by dynamic light scattering method
Type: physicochemical
Details: buffer
So I've got a bunch of molecules here, and I need their Activity values.
Numbers only, in nm.

Consider the reported Activity for these molecules:
CN(CCCNC(=O)c1cccc(C(=O)O)c1)CCCNC(=O)c1cc(NC(=O)c2cc(NC(=O)c3cc(NC(=O)c4cc(NC(=O)C[C@H](CNC(=O)c5cc(NC(=O)c6cc(NC(=O)c7nc(NC(=O)c8nccn8C)cn7C)cn6C)cn5C)NC(=O)c5ccccc5)cn4C)cn3C)cn2C)cn1C; 176
CN(CCCNC(=O)c1cccc(C(=O)O)c1)CCCNC(=O)c1cc(NC(=O)c2cc(NC(=O)c3cc(NC(=O)c4cc(NC(=O)C[C@@H](N)CNC(=O)c5cc(NC(=O)c6cc(NC(=O)c7nc(NC(=O)c8nccn8C)cn7C)cn6C)cn5C)cn4C)cn3C)cn2C)cn1C; 108

The following molecules each have a reported value; give each one's Activity.
1. Cn1cc2cc1C(=O)NCCCC(=O)Nc1cn(C)c(n1)C(=O)Nc1cn(C)c(n1)C(=O)Nc1cc(n(C)c1)C(=O)Nc1cc(n(C)c1)C(=O)NC[C@H](N)CC(=O)Nc1cc(n(C)c1)C(=O)Nc1cc(n(C)c1)C(=O)Nc1cc(n(C)c1)C(=O)N2
2. CN(CCCNC(=O)c1cccc(C(=O)O)c1)CCCNC(=O)c1cc(NC(=O)c2cc(NC(=O)c3cc(NC(=O)c4nc(NC(=O)C[C@H](CNC(=O)c5cc(NC(=O)c6cc(NC(=O)c7cc(NC(=O)c8nccn8C)cn7C)cn6C)cn5C)NC(=O)c5ccccc5)cn4C)cn3C)cn2C)cn1C
3. CC(=O)N[C@@H](CNC(=O)c1cc(NC(=O)c2cc(NC(=O)c3nc(NC(=O)c4nccn4C)cn3C)cn2C)cn1C)CC(=O)Nc1cc(C(=O)Nc2cc(C(=O)Nc3cc(C(=O)Nc4cc(C(=O)NCCCN(C)CCCNC(=O)c5cccc(C(=O)O)c5)n(C)c4)n(C)c3)n(C)c2)n(C)c1

1. 197
2. 127
3. 100

----------
Experiment: Solubility of the compound in 0.1 % DMSO/PBS solution assessed as radius of the aggregate particle at 1 uM measured over 10 mins by dynamic light scattering method
Assay type: physicochemical
Details: buffer
Consider the following compounds; for each one, report its Activity.
Give bare numbers, in nm.

CN(CCCNC(=O)c1cccc(C(=O)O)c1)CCCNC(=O)c1cc(NC(=O)c2cc(NC(=O)c3cc(NC(=O)c4nc(NC(=O)C[C@H](CNC(=O)c5cc(NC(=O)c6cc(NC(=O)c7cc(NC(=O)c8nccn8C)cn7C)cn6C)cn5C)NC(=O)c5ccccc5)cn4C)cn3C)cn2C)cn1C; 87
CN(CCCNC(=O)c1cc(NC(=O)c2cc(NC(=O)c3cc(NC(=O)c4nc(NC(=O)C[C@H](CNC(=O)c5cc(NC(=O)c6cc(NC(=O)c7cc(NC(=O)c8nccn8C)cn7C)cn6C)cn5C)NC(=O)c5ccccc5)cn4C)cn3C)cn2C)cn1C)CCCNC(=S)Nc1ccc(-c2c3ccc(=O)cc-3oc3cc(O)ccc23)c(C(=O)O)c1; 147
CN(CCCNC(=O)c1cc(NC(=O)c2cc(NC(=O)c3cc(NC(=O)c4nc(NC(=O)C[C@@H](N)CNC(=O)c5cc(NC(=O)c6cc(NC(=O)c7cc(NC(=O)c8nccn8C)cn7C)cn6C)cn5C)cn4C)cn3C)cn2C)cn1C)CCCNC(=S)Nc1ccc(-c2c3ccc(=O)cc-3oc3cc(O)ccc23)c(C(=O)O)c1; 294

Reported Activity for "CN(CCCNC(=O)c1cccc(C(=O)O)c1)CCCNC(=O)c1cc(NC(=O)c2cc(NC(=O)c3cc(NC(=O)c4cc(NC(=O)C[C@H](CNC(=O)c5cc(NC(=O)c6cc(NC(=O)c7nc(NC(=O)c8nccn8C)cn7C)cn6C)cn5C)NC(=O)c5ccccc5)cn4C)cn3C)cn2C)cn1C" was 123

----------
Assign Activity to each entry below.
Assay: Solubility of the compound in 0.1 % DMSO/PBS solution assessed as radius of the aggregate particle at 4 uM measured over 10 mins by dynamic light scattering method
Type: physicochemical
Details: buffer

The examples below pair each entry with its known result.
CN(CCCNC(=O)c1cccc(C(=O)O)c1)CCCNC(=O)c1cc(NC(=O)c2cc(NC(=O)c3cc(NC(=O)c4nc(NC(=O)C[C@@H](N)CNC(=O)c5cc(NC(=O)c6cc(NC(=O)c7cc(NC(=O)c8nccn8C)cn7C)cn6C)cn5C)cn4C)cn3C)cn2C)cn1C; 104 nm
CN(CCCNC(=O)c1cccc(C(=O)O)c1)CCCNC(=O)c1cc(NC(=O)c2cc(NC(=O)c3cc(NC(=O)c4cc(NC(=O)[C@H](N)CCNC(=O)c5cc(NC(=O)c6cc(NC(=O)c7nc(NC(=O)c8nccn8C)cn7C)cn6C)cn5C)cn4C)cn3C)cn2C)cn1C; 124 nm
CN(CCCNC(=O)c1cccc(C(=O)O)c1)CCCNC(=O)c1cc(NC(=O)c2cc(NC(=O)c3cc(NC(=O)c4nc(NC(=O)[C@H](N)CCNC(=O)c5cc(NC(=O)c6cc(NC(=O)c7cc(NC(=O)c8nccn8C)cn7C)cn6C)cn5C)cn4C)cn3C)cn2C)cn1C; 182 nm

With those in mind, consider the next molecule.
For reference, reported Activity for "Cn1cc2cc1C(=O)NC[C@H](N)CC(=O)Nc1cc(n(C)c1)C(=O)Nc1cc(n(C)c1)C(=O)Nc1cc(n(C)c1)C(=O)Nc1cc(n(C)c1)C(=O)NC[C@H](N)CC(=O)Nc1cn(C)c(n1)C(=O)Nc1cn(C)c(n1)C(=O)Nc1cc(n(C)c1)C(=O)N2" stands at 347 nm

----------
Test: Plasma concentration of compound in C57Bl/6 mouse at 120 nmol, ip in 1 % DMSO/80 mM HPbeta-CD/PBS vehicle measured after 1.5 hrs
Format: ADME, organism-based
endpoint: concentration at 1.5 h
For clarity, give the value followed by its unit.

Briefly, concentration at 1.5 h measured for "CN(CCCNC(=O)c1cccc(C(=O)O)c1)CCCNC(=O)c1cc(NC(=O)c2cc(NC(=O)c3cc(NC(=O)c4cc(NC(=O)[C@H](N)CCNC(=O)c5cc(NC(=O)c6cc(NC(=O)c7nc(NC(=O)c8nccn8C)cn7C)cn6C)cn5C)cn4C)cn3C)cn2C)cn1C" : 13 µM

----------
Experiment: Plasma concentration of compound in C57Bl/6 mouse at 120 nmol, ip in 20 % DMSO/PBS vehicle measured after 1.5 hrs
Format: ADME, organism-based
endpoint: concentration at 1.5 h (µM)
Numbers only, in µM.

Summary for this molecule, "CN(CCCNC(=O)c1cccc(C(=O)O)c1)CCCNC(=O)c1cc(NC(=O)c2cc(NC(=O)c3cc(NC(=O)c4cc(NC(=O)[C@H](N)CCNC(=O)c5cc(NC(=O)c6cc(NC(=O)c7nc(NC(=O)c8nccn8C)cn7C)cn6C)cn5C)cn4C)cn3C)cn2C)cn1C" : concentration at 1.5 h is 13

----------
Test: Solubility of the compound in 0.1 % DMSO/PBS solution assessed as radius of the aggregate particle at 4 uM measured over 10 mins by dynamic light scattering method
Format: physicochemical
Conditions: buffer
endpoint: Activity (nm)
Give bare numbers, in nm.

CC(=O)N[C@H]1CNC(=O)c2cc(cn2C)NC(=O)c2cc(cn2C)NC(=O)c2nc(cn2C)NC(=O)c2nc(cn2C)NC(=O)C[C@@H](NC(C)=O)CNC(=O)c2cc(cn2C)NC(=O)c2cc(cn2C)NC(=O)c2cc(cn2C)NC(=O)c2cc(cn2C)NC(=O)C1; 182

Next item in the queue.
Record summary for "CC(=O)N[C@@H](CNC(=O)c1cc(NC(=O)c2cc(NC(=O)c3cc(NC(=O)c4nccn4C)cn3C)cn2C)cn1C)CC(=O)Nc1cn(C)c(C(=O)Nc2cc(C(=O)Nc3cc(C(=O)Nc4cc(C(=O)NCCCN(C)CCCNC(=O)c5cccc(C(=O)O)c5)n(C)c4)n(C)c3)n(C)c2)n1" : reported Activity = 74

----------
Assay: Solubility of the compound in 0.1 % DMSO/PBS solution at 4 uM after 2 hrs by HPLC analysis
Format: physicochemical
Settings: buffer
endpoint: solubility

Cn1cc2cc1C(=O)NCCCC(=O)Nc1cn(C)c(n1)C(=O)Nc1cn(C)c(n1)C(=O)Nc1cc(n(C)c1)C(=O)Nc1cc(n(C)c1)C(=O)NC[C@H](N)CC(=O)Nc1cc(n(C)c1)C(=O)Nc1cc(n(C)c1)C(=O)Nc1cc(n(C)c1)C(=O)N2; Insoluble
CN(CCCNC(=O)c1cccc(C(=O)O)c1)CCCNC(=O)c1cc(NC(=O)c2cc(NC(=O)c3cc(NC(=O)c4cc(NC(=O)C[C@H](CNC(=O)c5cc(NC(=O)c6cc(NC(=O)c7nc(NC(=O)c8nccn8C)cn7C)cn6C)cn5C)NC(=O)c5ccccc5)cn4C)cn3C)cn2C)cn1C; Insoluble

The origin of these recorded values is ChEMBL document CHEMBL2163323.
